Source: paper PMC10076643

Assignment: determine reported pIC50 for the given compounds.
system: KB (human oral epidermoid carcinoma cell line); assay: MTT antiproliferative assay, KB; format: cell-based; conditions: Homo sapiens; MTT, 72 h
pIC50: −log10 of the molar value.

Notebook: O=CC=C(Cl)c1cc2ccc(OCc3cccc(Br)c3)cc2oc1=O , pIC50 read as < 4.00

Notebook: CCOc1ccc2cc(C(Cl)=CC=O)c(=O)oc2c1 , pIC50 read as < 4.00

Notebook: O=CC=C(Cl)c1cc2ccc(O)cc2oc1=O , pIC50 read as < 4.00
